- Tested on: CYP2D6
- Recorded conditions: human

Compound: CN1CCN(C2=Nc3cc(Cl)ccc3Nc3ccccc32)CC1 [clozapine]
1 al (effect of 1 non-functional allele): −0.11
//
Compound: CNCCC(Oc1ccc(C(F)(F)F)cc1)c1ccccc1 (stereo not shown) [fluoxetine]
1 al (effect of 1 non-functional allele): 0.12
//
Compound: CN[C@H]1CC[C@@H](c2ccc(Cl)c(Cl)c2)c2ccccc21 [sertraline]
1 al (effect of 1 non-functional allele): 0.00
//
Compound: OCCN1CCN(CC/C=C2/c3ccccc3Sc3ccc(Cl)cc32)CC1 [zuclopenthixol]
1 al (effect of 1 non-functional allele): 0.22
//
Compound: O=c1n(CCCN2CCN(c3cccc(Cl)c3)CC2)nc2ccccn12 [trazadone]
1 al (effect of 1 non-functional allele): 0.15
//
Compound: CN1CCN2c3ccccc3Cc3ccccc3C2C1 (stereo not shown) [mianserin]
1 al (effect of 1 non-functional allele): 0.21
//
Compound: CN(C)CCC=C1c2ccccc2CCc2ccccc21 [amitryptiline]
1 al (effect of 1 non-functional allele): 0.17
//
Compound: CNCCCC12CCC(c3ccccc31)c1ccccc12 [maprotiline]
1 al (effect of 1 non-functional allele): 0.35
//
Compound: CN(C)CCCC1(c2ccc(F)cc2)OCc2cc(C#N)ccc21 (stereo not shown) [citalopram]
1 al (effect of 1 non-functional allele): 0.01
//
Compound: O=c1[nH]c2ccccc2n1C1CCN(CCCC(c2ccc(F)cc2)c2ccc(F)cc2)CC1 [pimozide]
1 al (effect of 1 non-functional allele): 0.03

---

- Tested on: CYP2C9
- Test name: dosing recommendation per CYP2C9 metabolizer subgroup as percentage of usual population dose (Equations 4-6)
- Parameters: species or system human
- Recorded conditions: CYP2C9
Measured 1 al (effect of 1 non-functional allele) accompanies every entry in the list below.

Compound: CCC1=C(C)CN(C(=O)NCCc2ccc(S(=O)(=O)NC(=O)N[C@H]3CC[C@H](C)CC3)cc2)C1=O
1 al (effect of 1 non-functional allele): 0.42
//
Compound: CC(C)n1c(/C=C/[C@@H](O)C[C@@H](O)CC(=O)O)c(-c2ccc(F)cc2)c2ccccc21 (racemic)
1 al (effect of 1 non-functional allele): 0.20
//
Compound: CCCNC(=O)NS(=O)(=O)c1ccc(Cl)cc1
1 al (effect of 1 non-functional allele): 0.58
//
Compound: CCCCc1nc(Cl)c(CO)n1Cc1ccc(-c2ccccc2-c2nn[nH]n2)cc1
1 al (effect of 1 non-functional allele): 0.50
//
Compound: CC(=O)CC(c1ccccc1)c1c(O)c2ccccc2oc1=O (stereo not shown)
1 al (effect of 1 non-functional allele): 0.62
//
Compound: Cc1ccc(-c2cc(C(F)(F)F)nn2-c2ccc(S(N)(=O)=O)cc2)cc1
1 al (effect of 1 non-functional allele): 0.30
//
Compound: O=C1NC(=O)C(c2ccccc2)(c2ccccc2)N1 [Dilantin]
1 al (effect of 1 non-functional allele): 0.36

---

- Test system: CYP2D6
- Recorded conditions: human
Reported 1 al (effect of 1 non-functional allele) is given for each of the following compounds.

Compound: CC(CN(C)C)CN1c2ccccc2CCc2ccccc21 (stereo not drawn)
1 al (effect of 1 non-functional allele): 0.31

Compound: COc1ccc2c(c1)N(C[C@H](C)CN(C)C)c1ccccc1S2
1 al (effect of 1 non-functional allele): 0.00

Compound: CCc1nn(CCCN2CCN(c3cccc(Cl)c3)CC2)c(=O)n1CCOc1ccccc1
1 al (effect of 1 non-functional allele): 0.08

Compound: O=C(NCCN1CCOCC1)c1ccc(Cl)cc1 [moclobemide]
1 al (effect of 1 non-functional allele): −0.16

Compound: CN1CCN(CCCN2c3ccccc3Sc3ccccc32)CC1
1 al (effect of 1 non-functional allele): 0.17

Compound: CNCCCN1c2ccccc2CCc2ccccc21
1 al (effect of 1 non-functional allele): 0.34

Origin of the recorded values: patent US8589175B2
